tested on: HEK293; assay: Cytotoxicity against HEK293 cells assessed as reduction in cell viability after 24 hrs by MTT assay; type: cell-based; conditions: Homo sapiens, HEK293, 24 h
experimental_readout: IC50 (nM)
The figure you give is taken to be in nM; do not add the unit.

// query Form entry - test system: HEK293; read-out: IC50; compound: COc1ccc2[nH]c(-c3cc(OC)c(/C=C/C4=[N+](C)c5ccccc5C4(C)C)[nH]3)cc2c1.[I-]
// result 2610

// query Form entry - test system: HEK293; read-out: IC50; compound: COc1cc(-c2cc3ccccc3[nH]2)[nH]c1/C=C/C1=[N+](C)c2ccccc2C1(C)C.[I-]
// result 2560

---

tested on: HeLa; experiment: Cytotoxicity against human HeLa cells assessed as reduction in cell viability after 24 hrs by MTT assay
experimental_readout: IC50 (nM)
The figure you give is taken to be in nM; do not add the unit.

// query I am curious: what IC50 value has been reported for COc1cccc2c1C(=O)c1c(O)c3c(c(O)c1C2=O)C[C@@](O)(C(=O)CO)C[C@@H]3O[C@H]1C[C@H](N)[C@H](O)[C@H](C)O1 [DOXORUBICIN] ?
// result 2000

---

Kindly state viability at 24 h, 5 µM for each of the entries shown.
assay: Cytotoxicity against HEK293 cells assessed as cell viability at 5 uM after 24 hrs by MTT assay relative to control; format: cell-based; conditions: human, read-out: Activity
The figure you give is taken to be in %; do not add the unit.

// query I am curious: what viability at 24 h, 5 µM value has been reported for COc1ccc2[nH]c(-c3cc(OC)c(/C=C/C4=[N+](C)c5ccccc5C4(C)C)[nH]3)cc2c1.[I-] ?
// result 25

// query I am curious: what viability at 24 h, 5 µM value has been reported for COc1cc(-c2cc3ccccc3[nH]2)[nH]c1/C=C/C1=[N+](C)c2ccccc2C1(C)C.[I-] ?
// result 24
